B1: RTN1 (parent)
chain: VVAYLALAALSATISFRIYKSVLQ

- Variants of: B1
- Assay remarks: protein stability index of a GFP-peptide fusion (GPS, HEK-293T) (PSI 1-6); higher = more stable;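 also: lentivirally expressed fusions sorted by FACS into six bins by GFP to DsRed ratio, PSI derived from sequencing read proportions per bin multiplied by bin number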
- Conditions: c terminus: a fixed tail appended
Measurement type: protein stability index

Take a look at these entries with their results.
V1F 2.66
S15P 2.71
T13V 2.39
V2D 2.43
A3Q 2.68
S21R 1.99

-- ask Look up protein stability index: V1R
-- reply 2.44

-- ask Look up protein stability index: L7K
-- reply 3.13

-- ask Look up protein stability index: L5Y
-- reply 1.83

-- ask Look up protein stability index: V1C
-- reply 1.99

-- ask Look up protein stability index: I18G
-- reply 2.69
